- Read-out: Cytochrome P450 3A7 (Homo sapiens) (UniProt P24462)
- Sequence (P24462 whole entry, looked up): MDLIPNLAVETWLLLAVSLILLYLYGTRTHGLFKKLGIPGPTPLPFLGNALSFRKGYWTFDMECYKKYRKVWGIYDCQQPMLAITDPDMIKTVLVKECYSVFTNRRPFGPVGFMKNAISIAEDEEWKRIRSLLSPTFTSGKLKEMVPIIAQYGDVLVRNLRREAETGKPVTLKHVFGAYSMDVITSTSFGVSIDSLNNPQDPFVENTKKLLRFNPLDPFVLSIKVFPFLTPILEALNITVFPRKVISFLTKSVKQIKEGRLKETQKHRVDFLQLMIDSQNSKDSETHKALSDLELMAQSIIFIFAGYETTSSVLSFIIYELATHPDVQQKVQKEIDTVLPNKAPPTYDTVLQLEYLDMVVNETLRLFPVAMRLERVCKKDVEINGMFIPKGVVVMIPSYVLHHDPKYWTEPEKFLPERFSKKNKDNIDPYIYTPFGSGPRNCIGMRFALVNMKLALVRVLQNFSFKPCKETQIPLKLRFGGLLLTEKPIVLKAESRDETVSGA
- Procedure Text: LTEA_HepaRG_CYP3A7: Life Technologies and Expression Analysis (LTEA) Assay for CYP3A7 using HepaRG (AID 2283492)
- Conditions: mRNA level, 48 h; actives raise or lower the signal
The source made the active and inactive calls. The calls were made as follows: active = hit-call score of the fitted dose curve at least 0.9, where 1 is the maximum; inactive = score below 0.9.
Choose the fitting class; nothing outside y (active), n (inactive) is accepted.

>>> class_label("COC(=O)N(OC)c1ccccc1COc1ccn(-c2ccc(Cl)cc2)n1")
"y"
>>> class_label("CCNc1nc(Cl)nc(NC(C)C)n1")
"n"
>>> class_label("Fc1ccc(Oc2ccnc3cc(Cl)cc(Cl)c23)cc1")
"y"

Exam item: State the result this test recorded for COC(=O)C(C)Oc1ccc(Oc2ccc(Cl)cc2Cl)cc1 (configuration not stated) .
Marked response: y

Exam item: State the result this test recorded for CNC(=O)ON=CC(C)(C)SC .
Marked response: n

Exam item: State the result this test recorded for CCCC1COC(Cn2cncn2)(c2ccc(Cl)cc2Cl)O1 (configuration not stated) .
Marked response: y

Exam item: State the result this test recorded for N#Cc1cc(Br)c(O)c(Br)c1 .
Marked response: y

----------
- Procedure Text: CCTE_Harrill_HTTr_Apoptosis_PRF_DMEM_12hr: (Pilot) CCTE's 12-hour Apoptosis Assessment for the High-Throughput Transcriptomics (HTTr) Platform, in MCF-7 cells cultured in phenol red-free DMEM + 10% charcoal-stripped fetal bovine serum, Harrill Lab (AID 2283985)
- Source text: This is a cell-based assay that evaluates apoptosis using high content imaging to evaluate activation of caspase-3/7 using the CellEvent Caspase 3/7 Green detection reagent in 384-well format.One of seven assay components measured from the CCTE_Harrill_HTTr_Apoptosis assay. This was part of a pilot experiment. This is a cell-based assay that evaluates apoptosis in MCF-7 cells cultured in phenol red-free DMEM + 10% charcoal-stripped fetal bovine serum. […]
Calls of active or inactive are those of the source. Rule for the calls: active = hit-call score of the fitted dose curve at least 0.9, where 1 is the maximum; inactive = score below 0.9.
Result Type: outcome

>>> test_value("COC(=O)N(OC)c1ccccc1COc1ccn(-c2ccc(Cl)cc2)n1")
"inactive"
>>> test_value("C=CC1(C)OC(=O)N(c2cc(Cl)cc(Cl)c2)C1=O (stereo not given)")
"inactive"
>>> test_value("CCCC1COC(Cn2cncn2)(c2ccc(Cl)cc2Cl)O1 (stereo not given)")
"inactive"
>>> test_value("CCNc1nc(Cl)nc(NC(C)C)n1")
"inactive"

response.value for CN(C)C(=S)SSC(=S)N(C)C (field: outcome) = inactive

----------
- Read-out: growth arrest and DNA damage 45 (GADD45A), GADD45A (gene 1647)
- Procedure Text: LTEA_HepaRG_GADD45A: Life Technologies and Expression Analysis (LTEA) Assay for growth arrest and DNA damage 45 (GADD45A) using HepaRG (AID 2283458)
- Conditions: mRNA level, 48 h; actives raise or lower the signal
- Description: LTEA_HepaRG is a cell based, multiplexed-readout assay that uses HepaRG, a human liver cell line, with measurements taken at 48 hours after chemical dosing on a 96-well plate.LTEA_HepaRG_GADD45A is one of 102 assay component(s) measured in the LTEA HepaRG cell culture assay. It is a marker of Oxidative Stress.Data from the assay component LTEA_HepaRG_GADD45A was analyzed into 1 endpoint. […]
Activity calls are given as the source filed them. The calls were made as follows: active = hit-call score of the fitted dose curve at least 0.9, where 1 is the maximum; inactive = score below 0.9.
Choose the fitting class; nothing outside class 1 for active, class 0 for inactive is accepted.

Example cases with answers are listed next.
>>> class_label("CS/C(C)=N/OC(=O)N(C)SN(C)C(=O)O/N=C(\\C)SC")
"class 0"
>>> class_label("O=C(O)c1nc(Cl)ccc1Cl")
"class 0"
>>> class_label("COC(=O)C(C)Oc1ccc(Oc2ccc(Cl)cc2Cl)cc1 (stereo not drawn)")
"class 0"
>>> class_label("COC(=O)c1ccccc1C(=O)OC")
"class 0"
>>> class_label("COP(N)(=O)SC (stereo not drawn)")
"class 0"

Exam item: State the result this test recorded for N#Cc1nn(-c2c(Cl)cc(C(F)(F)F)cc2Cl)c(N)c1S(=O)C(F)(F)F (stereo not drawn) .
Marked response: class 1

Exam item: State the result this test recorded for Cc1ccc(-c2c(Cl)nc(C#N)n2S(=O)(=O)N(C)C)cc1 .
Marked response: class 1

Exam item: State the result this test recorded for CCCC1COC(Cn2cncn2)(c2ccc(Cl)cc2Cl)O1 (stereo not drawn) .
Marked response: class 1

Exam item: State the result this test recorded for COc1ccc(C(c2ccc(OC)cc2)C(Cl)(Cl)Cl)cc1 .
Marked response: class 0

Exam item: State the result this test recorded for CON(C)C(=O)Nc1ccc(Cl)c(Cl)c1 .
Marked response: class 0

Exam item: State the result this test recorded for CC1COC(Cn2cncn2)(c2ccc(Oc3ccc(Cl)cc3)cc2Cl)O1 (stereo not drawn) .
Marked response: class 1

Exam item: State the result this test recorded for CNC(=O)ON=CC(C)(C)SC .
Marked response: class 0

Exam item: State the result this test recorded for CCNc1nc(Cl)nc(NCC)n1 .
Marked response: class 0

FYI, the data here is from PubChem BioAssay (EPA / NIEHS).
